Values were extracted from patent EP4678639A1.

assay text: Solid-state accelerated stability test (40 ± 2 °C/RH 75 ± 5 %)
test settings: 40 ± 2 °C / RH 75 ± 5 %, 1 month vs initial
Where a name gives a salt, the structure may show the parent alone.
Each item that follows carries a reported Change (%) Degradant.
readout kind: Change (%) Degradant

[[record]]
molecule = "Cc1nc2c(O[C@H]3CCOc4cc(F)cc(F)c43)cc(C(=O)N(C)C)cc2[nH]1 [Hydrobromide Salt]"
unit_label = "%"
experimental_value = 0.216

[[record]]
molecule = "Cc1nc2c(O[C@H]3CCOc4cc(F)cc(F)c43)cc(C(=O)N(C)C)cc2[nH]1 [Phosphate Salt]"
unit_label = "%"
experimental_value = 0.120

[[record]]
molecule = "Cc1nc2c(O[C@H]3CCOc4cc(F)cc(F)c43)cc(C(=O)N(C)C)cc2[nH]1 [Methanesulfonate Salt (Amorphous Form)]"
unit_label = "%"
experimental_value = 0.840

[[record]]
molecule = "Cc1nc2c(O[C@H]3CCOc4cc(F)cc(F)c43)cc(C(=O)N(C)C)cc2[nH]1 [Hemisalicylate Salt]"
unit_label = "%"
experimental_value = 0.003

[[record]]
molecule = "Cc1nc2c(O[C@H]3CCOc4cc(F)cc(F)c43)cc(C(=O)N(C)C)cc2[nH]1 [Malate Salt]"
unit_label = "%"
experimental_value = 0.045

[[record]]
molecule = "Cc1nc2c(O[C@H]3CCOc4cc(F)cc(F)c43)cc(C(=O)N(C)C)cc2[nH]1 [Maleate Salt]"
unit_label = "%"
experimental_value = 0.056

[[record]]
molecule = "Cc1nc2c(O[C@H]3CCOc4cc(F)cc(F)c43)cc(C(=O)N(C)C)cc2[nH]1 [Sulfate Salt]"
unit_label = "%"
experimental_value = 0.373

[[record]]
molecule = "Cc1nc2c(O[C@H]3CCOc4cc(F)cc(F)c43)cc(C(=O)N(C)C)cc2[nH]1 [Pidolate Salt]"
unit_label = "%"
experimental_value = 0.002

[[record]]
molecule = "Cc1nc2c(O[C@H]3CCOc4cc(F)cc(F)c43)cc(C(=O)N(C)C)cc2[nH]1 [Methanesulfonate Salt (Crystalline Form)]"
unit_label = "%"
experimental_value = 0.396

